Test system: NCI-H1395
Assay: relative viability (nuclei count vs DMSO), 5 days (fraction); higher = more cells survive
Conditions: first compound 0.03162 µM
measured-quantity: relative viability

INSERT INTO assay_data (molecule, measured_value) VALUES
  ('CCN(CC)CCCCNc1ncc2cc(-c3cc(OC)cc(OC)c3)c(NC(=O)NC(C)(C)C)nc2n1 + COc1cc2c(Oc3ccc(NC(=O)C4(C(=O)Nc5ccc(F)cc5)CC4)cc3F)ccnc2cc1OCCCN1CCOCC1 [Foretinib] (partner 0.25 µM)', 1.02),
  ('CCN(CC)CCCCNc1ncc2cc(-c3cc(OC)cc(OC)c3)c(NC(=O)NC(C)(C)C)nc2n1 + Nc1ncn([C@H]2C[C@H](O)[C@@H](CO)O2)c(=O)n1 [Decitabine] (partner 2 µM)', 0.685);

* * *

Tested on: NCI-H596
Assay: relative viability (nuclei count vs DMSO), 5 days (fraction); higher = more cells survive
Settings: first compound 1 µM
measured-quantity: relative viability

INSERT INTO measurements (molecule, measured_value) VALUES
  ('O=c1cc(N2CCOCC2)oc2c(-c3cccc4c3sc3ccccc34)cccc12 + NC(=O)Nc1cc(-c2cccc(F)c2)sc1C(=O)N[C@H]1CCCNC1 [AZD7762] (partner 0.2 µM)', 1.08),
  ('O=c1cc(N2CCOCC2)oc2c(-c3cccc4c3sc3ccccc34)cccc12 + C[C@@H](Oc1cc(-c2cnn(C3CCNCC3)c2)cnc1N)c1c(Cl)ccc(F)c1Cl [Crizotinib] (partner 1 µM)', 0.882),
  ('CCN(CC)CCCCNc1ncc2cc(-c3cc(OC)cc(OC)c3)c(NC(=O)NC(C)(C)C)nc2n1 + N=C(N)NC(=N)NCCc1ccccc1 [Phenformin] (partner 250 µM)', 0.621);

* * *

System: NCI-H441
Experiment: relative viability (nuclei count vs DMSO), 5 days (fraction); higher = more cells survive
Conditions: first compound 20 µM
The threshold is 0.3. Values of relative viability beneath it are tagged y; values meeting or exceeding it are tagged n.

INSERT INTO assay_data (compound, category_label) VALUES
  ('COCC1(CO)C(=O)C2CCN1CC2 (stereo not given) [PRIMA-1MET] + COc1cccc2cc(-c3nc([C@H]4CC[C@H](C(=O)O)CC4)n4ncnc(N)c34)[nH]c12 [OSI-027] (partner 0.5 µM)', 'n'),
  ('COCC1(CO)C(=O)C2CCN1CC2 (stereo not given) [PRIMA-1MET] + Cc1nc(NC(=O)N2CCC[C@H]2C(N)=O)sc1-c1ccnc(C(C)(C)C(F)(F)F)c1 [Alpelisib] (partner 2 µM)', 'y'),
  ('COCC1(CO)C(=O)C2CCN1CC2 (stereo not given) [PRIMA-1MET] + CS(=O)(=O)N1CCN(Cc2cc3nc(-c4cccc5[nH]ncc45)nc(N4CCOCC4)c3s2)CC1 [Pictilisib] (partner 1 µM)', 'y'),
  ('COCC1(CO)C(=O)C2CCN1CC2 (stereo not given) [PRIMA-1MET] + Nc1nc2[nH]cc(CCc3ccc(C(=O)N[C@@H](CCC(=O)O)C(=O)O)cc3)c2c(=O)[nH]1 [Pemetrexed] (partner 0.2 µM)', 'y'),
  ('COCC1(CO)C(=O)C2CCN1CC2 (stereo not given) [PRIMA-1MET] + Cc1cc(Nc2cc(N3CCN(C)CC3)nc(Sc3ccc(NC(=O)C4CC4)cc3)n2)n[nH]1 [Tozasertib] (partner 0.1 µM)', 'n');
